These data points were gathered from PubChem BioAssay.

- Tested on: transactivating tegument protein VP16 (Human herpesvirus 1), Gal4-VP16 luciferase reporter
- Assay info: VP16 transactivation inhibitors, counter-screen for SRC3 inhibitor project, cell-based, luminescence, high throughput (AID 588794)
- Test settings: mammalian cells, VP16-driven luciferase reporter luminescence; at 3.6 µM; hits give high values
Observation type: inhibition (%)

Compound: Nc1nc(NCc2ccco2)nc(N2CCCCCC2)c1[N+](=O)[O-]
Unit text: %
Result value: 18
//
Compound: CC(=NNC(=S)Nc1ccc(C)cc1)c1ccccn1
Unit text: %
Result value: 69.9
//
Compound: CC1CC(C)CN(c2nc(NCc3ccco3)nc(N)c2[N+](=O)[O-])C1 (stereo unspecified)
Unit text: %
Result value: 9.4
//
Compound: CCN(CC)Cc1c(O)ccc2c([N+](=O)[O-])c(C)n(-c3ccc(OC)cc3)c12
Unit text: %
Result value: 50.9
//
Compound: Cn1c2c(c(=O)n(C)c1=O)C(C(F)(F)F)(C(F)(F)F)N=C(c1ccc(Cl)cc1)N2
Unit text: %
Result value: 85.7
//
Compound: CCOC(=O)c1c(C)sc2c1N(C(=O)CCl)c1cc(Cl)ccc1S2
Unit text: %
Result value: 1.53
//
Compound: O=C(O)C1CCCN1c1nc(-c2ccc(Cl)c(Cl)c2)cc(C(F)(F)F)n1 (stereo unspecified)
Unit text: %
Result value: 74.4
//
Compound: COc1ccc2[nH]c3c(C)c4ccncc4c(C)c3c2c1
Unit text: %
Result value: 53.7
//
Compound: Cc1ccccc1Nc1nc(N)nc(CCl)n1
Unit text: %
Result value: 0.42
//
Compound: CC(C)(C)c1cc[n+](C2=C([O-])c3ccccc3C(=O)/C2=N\S(=O)(=O)c2cccs2)cc1
Unit text: %
Result value: 9.97
//
Compound: Nc1nc(F)nc2c1ncn2[C@@H]1O[C@H](CO)[C@@H](O)[C@H]1O
Unit text: %
Result value: 93.4
//
Compound: O=C(CN1C(=O)c2ccccc2S1(=O)=O)c1ccc2c(c1)OCCO2
Unit text: %
Result value: 89.7
//
Compound: Cc1ccc(S(=O)(=O)N2CCOCC2)cc1NC(=O)CN1CCN(c2ccc(O)cc2)CC1
Unit text: %
Result value: -1.58
//
Compound: c1ccc(-c2noc(-c3ccc4c(c3)OCO4)n2)nc1
Unit text: %
Result value: 7.86
//
Compound: CCN(CC)S(=O)(=O)c1cc(NC(=O)C(C)OC(=O)c2[nH]c(C)c(C(C)=O)c2C)ccc1C (stereo unspecified)
Unit text: %
Result value: 8.36
//
Compound: CN(C)CCOc1ccc2c(c1)C(=O)C(=Cc1ncc([N+](=O)[O-])n1C)C2
Unit text: %
Result value: 35.2
//
Compound: O=c1cc(CNc2cc(C(F)(F)F)cc(C(F)(F)F)c2)nc2sccn12
Unit text: %
Result value: 3.94
//
Compound: COc1ccc(-c2cc(C(=O)NNC(=S)NC(=O)c3c(-c4ccccc4)noc3C)[nH]n2)cc1
Unit text: %
Result value: -3.86
//
Compound: Cc1ccc(C(=O)C[n+]2cc(-c3ccccc3)n3c2CCCCC3)cc1
Unit text: %
Result value: 22.9
//
Compound: Nc1nc(/C=C/c2cccnc2)nc(-c2ccccc2O)n1
Unit text: %
Result value: 0.59
//
Compound: CC(=NNC(=S)Nc1ccccc1Cl)c1ccccn1
Unit text: %
Result value: 71.8
